System: P. falciparum Dd2
Test: Inhibition of in vitro P. falciparum culture, [3H]-hypoxanthine uptake, Dd2
Assay type: cell-based
Conditions: Plasmodium falciparum, DD2, Table 3; [3H]-hypoxanthine uptake; read-out: Dd2 IC50
readout.label: IC50

Previously resolved entries follow.
compound: CCCNC(=O)c1ccc(N2CCN(C)CC2)s1 [Compound 10]
IC50: > 10 µM
--
compound: CCCNC(=O)c1ccc(-n2cccn2)s1 [Compound 9]
IC50: > 10 µM

Now examine the next entry.
Asked: # lookup: IC50 of CCCNC(=O)c1ccc(N2CCCCC2)s1 [Compound 8]
Given back: > 10 µM

----------
Molecular target: pfDHODH (Plasmodium falciparum (isolate 3D7), UniProt Q08210)
Sequence (Q08210 159-565 limits assumed): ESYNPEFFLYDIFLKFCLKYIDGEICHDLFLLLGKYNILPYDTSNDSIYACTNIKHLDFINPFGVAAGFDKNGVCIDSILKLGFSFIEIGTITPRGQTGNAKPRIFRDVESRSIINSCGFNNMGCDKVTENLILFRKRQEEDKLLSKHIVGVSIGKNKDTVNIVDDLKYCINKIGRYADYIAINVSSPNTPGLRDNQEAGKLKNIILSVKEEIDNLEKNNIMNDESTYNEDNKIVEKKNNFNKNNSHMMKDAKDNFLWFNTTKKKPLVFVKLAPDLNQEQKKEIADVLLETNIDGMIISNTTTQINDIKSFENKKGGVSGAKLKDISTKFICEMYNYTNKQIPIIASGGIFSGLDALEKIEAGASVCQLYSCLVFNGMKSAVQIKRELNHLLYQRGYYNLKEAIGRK
Test: DHODH chromogen reduction (DCIP) assay, pfDHODH
Format: biochemical, P. falciparum
Details: Table 2b; read-out: pfDHODH IC50
pIC50: −log10 of the molar value.
readout.label: pIC50

compound: CCCC/C(=N\OC)c1ccc(-n2cnc3ccccc32)s1
pIC50: < 4.52

Asked: # lookup: pIC50 of CCCNC(=O)c1ccc(N2Cc3cccc(OC)c3Oc3ncccc32)s1
Given back: < 4.52

Asked: # lookup: pIC50 of O=C(NC1CC1)c1ccc(-n2ncc3ccccc32)s1
Given back: < 4.52

Asked: # lookup: pIC50 of CCCCC(O)c1ccc(-n2cnc3ccccc32)s1 (stereo not drawn)
Given back: < 4.52

Asked: # lookup: pIC50 of CCCNC(=O)c1ccc(N2CCCC2)s1
Given back: < 3.60

Asked: # lookup: pIC50 of CCCNC(=O)c1ccc(N2CCN(C)CC2)s1
Given back: < 3.60

----------
System: P. falciparum 3D7
Assay: Inhibition of in vitro P. falciparum culture, [3H]-hypoxanthine uptake, 3D7
Type: cell-based
Conditions: Plasmodium falciparum, 3D7, Table 2b; read-out: 3D7 EC50
Experimental: P. falciparum strains D10, 3D7, HB3, and Dd2 were obtained from the Malaria Research and Reference Reagent Resource Center (Manassas, Va.). The parasite strains were maintained in vitro by method of Trager and Jensen. The inhibition of P. falciparum growth in the presence of drug was assessed by the relative reduction of [^3H]-hypoxanthine uptake as previously described. […]
Entries and their pEC50
Lab note — pEC50 values are minus log10 of concentrations in M.

Previously resolved entries follow.
compound: CCCCNC(=O)c1ccc(-n2cnc3ccccc32)s1
pEC50: 4.70
--
compound: CCc1nc2ccccc2n1-c1ccc(C(=O)NC2CC2)s1
pEC50: 6.90
--
compound: O=C(NCCO)c1ccc(-n2cnc3ccccc32)s1
pEC50: 5.23
--
compound: Cc1nc2cnccc2n1-c1ccc(C(=O)NC2CC2)s1
pEC50: 5.43
--
compound: Cc1nc2cc3ccccc3cc2n1-c1ccc(C(=O)NC2CC2)s1
pEC50: 7.77

Asked: # lookup: pEC50 of CNC(=O)c1ccc(-n2cnc3ccccc32)s1
Given back: 6.56

Asked: # lookup: pEC50 of CCNC(=O)c1ccc(-n2c(CC)nc3cc(F)ccc32)s1
Given back: 6.65

Asked: # lookup: pEC50 of CCCCC(O)c1ccc(-n2cnc3ccccc32)s1 (centres unmarked)
Given back: 4.70

Asked: # lookup: pEC50 of O=C(NC1CC1)c1ccc(-c2nc3ccccc3o2)s1
Given back: 5.59

Asked: # lookup: pEC50 of Cc1nc2ccc(OC(F)(F)F)cc2n1-c1ccc(C(=O)NC2CC2)s1
Given back: 8.05

Asked: # lookup: pEC50 of CCNC(=O)c1ccc(-n2c(C)nc3cc(Cl)ccc32)s1
Given back: 7.28

Asked: # lookup: pEC50 of CCNC(=O)c1ccc(-n2c(CC)nc3ccccc32)s1
Given back: 6.85

Asked: # lookup: pEC50 of O=C(c1ccc(-n2cnc3ccccc32)s1)N1CCC1
Given back: 5.30

Asked: # lookup: pEC50 of Cc1nc2cccnc2n1-c1ccc(C(=O)NC2CC2)s1
Given back: 6.44

Asked: # lookup: pEC50 of Cc1ccc2c(c1)ncn2-c1ccc(C(=O)NC2CC2)s1
Given back: 7.70

Asked: # lookup: pEC50 of O=C(c1ccc(-n2cnc3ccccc32)s1)N1CCCC1
Given back: 5.00

Asked: # lookup: pEC50 of CCCNC(=O)c1ccc(-n2c(C)cc3ccccc32)s1
Given back: 6.41

Asked: # lookup: pEC50 of c1ccc2[nH]c(-c3ccc(-c4nc5ccccc5[nH]4)s3)nc2c1
Given back: 5.30

Asked: # lookup: pEC50 of CCNC(=O)c1ccc(-n2c(C)nc3cc(C)ccc32)s1
Given back: 7.05

Asked: # lookup: pEC50 of Cc1nc2ccccc2n1-c1cc(C(=O)NC2CC2)cs1
Given back: 5.99

Asked: # lookup: pEC50 of CCNC(=O)c1ccc(-n2cnc3cc(F)ccc32)s1
Given back: 7.05

Asked: # lookup: pEC50 of Cc1nc2cc3c(cc2n1-c1ccc(C(=O)NC2CC2)s1)OCO3
Given back: 6.66

----------
System: P. falciparum 3D7
Assay: Inhibition of in vitro P. falciparum culture, [3H]-hypoxanthine uptake, 3D7
Type: cell-based
Details: Plasmodium falciparum, 3D7, Table 2b; read-out: 3D7 EC50
readout.label: EC50

sample.smiles: CCCNC(=O)c1ccc(-n2cccn2)s1
experimental.target: P. falciparum 3D7
EC50: > 10 µM
--
sample.smiles: CC[C@H](C)NC(=O)c1ccc(-n2cnc3ccccc32)s1
experimental.target: P. falciparum 3D7
EC50: > 20 µM
--
sample.smiles: CCCNC(=O)c1ccc(-n2ccnc2)s1
experimental.target: P. falciparum 3D7
EC50: > 10 µM
--
sample.smiles: CN(C)C(=O)c1ccc(-n2cnc3ccccc32)s1
experimental.target: P. falciparum 3D7
EC50: > 40 µM
--
sample.smiles: CCNC(=O)c1ccc(-n2c(C)nc3cc(F)ccc32)cc1
experimental.target: P. falciparum 3D7
EC50: > 0.5 µM

Now examine the next entry.
Asked: # lookup: EC50 of NC(=O)c1ccc(-n2cnc3ccccc32)s1
Given back: > 40 µM

----------
Entries and their pIC50
Molecular target: pfDHODH (Plasmodium falciparum (isolate 3D7), UniProt Q08210)
Test: DHODH chromogen reduction (DCIP) assay, pfDHODH
Format: biochemical, P. falciparum
Conditions: Table 2b; read-out: pfDHODH IC50
Lab note — pIC50 values are minus log10 of concentrations in M.

Previously resolved entries follow.
sample.smiles: Cc1nc2ccc(OC(F)(F)F)cc2n1-c1ccc(C(=O)NC2CC2)s1
pIC50: 7.44
--
sample.smiles: CCCNC(=O)c1ccc(-n2c(C)nc3ccccc32)s1
pIC50: 6.76

Now examine the next entry.
Asked: # lookup: pIC50 of CCCNC(=O)c1ccc(-n2c(C)nc3cc(F)ccc32)s1
Given back: 6.30

----------
Entries and their pEC50
System: P. falciparum 3D7
Assay: Inhibition of in vitro P. falciparum culture, [3H]-hypoxanthine uptake, 3D7
Type: cell-based
Details: Plasmodium falciparum, 3D7, Table 2b; read-out: 3D7 EC50
pEC50: −log10 of the molar value.

Previously resolved entries follow.
sample.smiles: Cc1nc2ccccc2n1-c1cscc1C(=O)NC1CC1
value: < 5.30

sample.smiles: CCCNC(=O)c1ccc(N2CCCCC2)s1
value: < 5.00

sample.smiles: CCNC(=O)c1cccc(-n2c(C)nc3cc(F)ccc32)c1
value: < 6.00

sample.smiles: CC[C@@H](C)NC(=O)c1ccc(-n2cnc3ccccc32)s1
value: < 5.30

sample.smiles: CCCNC(=O)c1ccc(-n2cnc3cncnc32)s1
value: < 5.00

sample.smiles: CCCNC(=O)c1ccc(N2CCOc3ccc(Cl)cc32)s1
value: < 5.00

sample.smiles: CCCNC(=O)c1ccc(N2CCSc3ccccc32)s1
value: < 5.00

sample.smiles: CCCNC(=O)c1ccc(N2CCN(C)CC2)s1
value: < 5.00

Asked: Given the entry CCCNC(=O)c1ccc(N2CCCC2)s1 , what pEC50 was observed with P. falciparum 3D7?
Given back: < 5.00

Asked: Given the entry CCCN(C)C(=O)c1ccc(-n2cnc3ccccc32)s1 , what pEC50 was observed with P. falciparum 3D7?
Given back: < 5.30

From: patent US8703811B2
